System: NCI-H460 lung
Assay: NCI tumour cell line growth inhibition, 48 h
The following compounds are listed with their measured GI50 values.

N#Cc1c(-c2ccccc2)nc(SCC(O)CN2CCOCC2)nc1N1CCOCC1 (centres undefined)	7.03 µM
Fc1ccc(C2CC(c3cccc(Nc4ccncc4)c3)=NN2c2ccccc2)cc1 (centres undefined)	1.76 µM
CN1C(=O)[C@@H](CC2CCCC2)N(C2CCCC2)c2nc(Nc3cc(Cl)c(O)c(Cl)c3)ncc21	23.5 µM

Inquiry: Any idea what GI50 was measured for CCOC(=O)C(Cc1ccccc1)n1c(O)c(/C=N/c2ncc(Cc3ccc(Cl)cc3Cl)s2)sc1=S (centres undefined) ?
Reply text: 2.09 µM

###

Tested on: A549 NSCLC
Assay: NCI tumour cell line growth inhibition, 48 h; in the data active = GI50 below about 0.43 µM; inactive = the rest
The reply should be one of these categories: active, inactive

CC(=O)[CH-]C(=O)c1ccccc1.CC(=O)[CH-]C(=O)c1ccccc1.CC(=O)[CH-]C(=O)c1ccccc1.[Cl-].[Hf+4]	inactive
CN(C)C/C=C/C(=O)Nc1ccc(C(=O)Nc2cccc(Nc3ncc(Cl)c(-c4c[nH]c5ccccc45)n3)c2)cc1	active
[pH]1p2[pH]p3p1p3[pH]2.c1cc[c]([Ge]([c]2ccccc2)[c]2ccccc2)cc1.c1cc[c]([Ge]([c]2ccccc2)[c]2ccccc2)cc1.c1cc[c]([Ge]([c]2ccccc2)[c]2ccccc2)cc1	inactive

Now turn to the next molecule.
Inquiry: How did this test come out for "Cc1ccc(/C=C(/C#N)n2nnc3cccc(F)c32)cc1" ?
Reply text: inactive

###

Tested on: MALME-3M melanoma
Experiment: NCI tumour cell line growth inhibition, 48 h; in the data active = GI50 below about 0.43 µM; inactive = the rest
The reply should be one of these categories: class 1 for active, class 0 for inactive

Previously resolved entries follow.
CCCCNC(=O)CC1=C(C)/C(=C/c2[nH]c(-c3ccc[nH]3)cc2OC)N=C1C	class 0
N#Cc1c(-c2ccccc2)nc(SCC(O)CN2CCOCC2)nc1N1CCOCC1 (stereo not given)	class 0
Oc1c(Cl)cc(Cl)c(Cl)c1Cc1c(O)c(Cl)cc(Cl)c1Cl	class 0

Now turn to the next molecule.
Inquiry: How did this test come out for "CCNCCS(=O)(=O)NC[C@@]1(c2ccccc2)SC(NC(=O)C(C)(C)C)=NN1C(=O)C(C)(C)C" ?
Reply text: class 0

###

Test system: SF-295 CNS
Experiment: NCI tumour cell line growth inhibition, 48 h
READOUT: TGI (µM)
The answer is to be given in µM; state only the numeric part.

Example entries and their recorded answers appear below.
CCCCNC(=O)CC1=C(C)/C(=C/c2[nH]c(-c3ccc[nH]3)cc2OC)N=C1C	3.48
CN1C(=O)[C@@H](CC2CCCC2)N(C2CCCC2)c2nc(Nc3cc(Cl)c(O)c(Cl)c3)ncc21	81.9
C[Si](C)(C)CCOCN(C(=O)C1=CCC2(CC1)OCCO2)c1ccccc1I	32

Now turn to the next compound.
Inquiry: Any idea what TGI was measured for C=C(C)C1Cc2c(cc3c(c2O)c(=O)c2ccccc2n3C)O1 (stereo not given) ?
Reply text: 18.2

###

Tested on: HCT-116 colon
Assay: NCI tumour cell line growth inhibition, 48 h
READOUT: TGI

Example entries and their recorded answers appear below.
C=C1C2CCCC1C1(S(C)(=O)=O)CCCCC21O (stereo not drawn)	> 100 µM
CC(=O)CCC[C@@H](C)[C@@H]1O[C@H]([C@@]2(C)CCC(=O)O2)CC2[C@H]1OC(=O)C21CC1 (stereo partly drawn)	> 100 µM

Now turn to the next compound.
Inquiry: Please state recorded TGI (tested on HCT-116 colon) of "CSc1ncc2c(C#N)c3n(C)c4ccccc4n3c(=O)c2n1"
Reply text: > 100 µM
